# Assayed System: mouse TMEM16A mutant P595A (Mus musculus, UniProt Q8BHY3, P595A)
# Construct: expressed in transfected cells; host or cells: HEK293T
# Sequence (Q8BHY3 1-960 P595A): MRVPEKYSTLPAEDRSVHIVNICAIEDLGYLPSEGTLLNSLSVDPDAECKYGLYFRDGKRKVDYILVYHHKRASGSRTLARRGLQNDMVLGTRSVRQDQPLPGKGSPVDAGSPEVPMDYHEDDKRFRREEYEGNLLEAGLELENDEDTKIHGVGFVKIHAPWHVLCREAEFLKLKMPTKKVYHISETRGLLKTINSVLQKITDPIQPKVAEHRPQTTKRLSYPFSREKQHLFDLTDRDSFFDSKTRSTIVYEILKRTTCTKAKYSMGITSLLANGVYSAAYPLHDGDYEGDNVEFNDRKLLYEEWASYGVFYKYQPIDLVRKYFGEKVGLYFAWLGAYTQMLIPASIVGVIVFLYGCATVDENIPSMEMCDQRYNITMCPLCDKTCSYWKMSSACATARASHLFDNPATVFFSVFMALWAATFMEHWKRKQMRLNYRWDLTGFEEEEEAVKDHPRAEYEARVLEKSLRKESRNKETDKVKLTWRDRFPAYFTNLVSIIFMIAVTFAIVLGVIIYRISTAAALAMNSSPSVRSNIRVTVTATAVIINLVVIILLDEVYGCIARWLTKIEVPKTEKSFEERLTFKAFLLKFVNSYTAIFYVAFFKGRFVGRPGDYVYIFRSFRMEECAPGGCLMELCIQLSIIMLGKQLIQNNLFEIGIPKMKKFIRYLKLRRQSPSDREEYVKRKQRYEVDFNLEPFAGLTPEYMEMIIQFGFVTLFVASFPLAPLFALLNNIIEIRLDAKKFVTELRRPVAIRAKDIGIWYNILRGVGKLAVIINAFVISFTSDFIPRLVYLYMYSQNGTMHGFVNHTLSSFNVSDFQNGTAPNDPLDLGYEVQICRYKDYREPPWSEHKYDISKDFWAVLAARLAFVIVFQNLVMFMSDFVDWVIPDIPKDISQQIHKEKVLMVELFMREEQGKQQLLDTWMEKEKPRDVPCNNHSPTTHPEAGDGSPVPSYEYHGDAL
# Assay Overview: Inside-out patch recording of 1PBC block, mutant P595A
# Assay type: cell-based
# Run Parameters: -100 mV; 2 µM Ca2+
# Procedure: HEK293T cells (ATCC CRL-1573) were maintained in Dulbecco’s modified Eagle’s medium (DMEM; Sigma-Aldrich) supplemented with 10 U ml^−1 penicillin, 0.1 mg ml^−1 streptomycin (Sigma-Aldrich), 2 mM L-glutamine (Sigma-Aldrich), and 10% FBS (Sigma-Aldrich) in a humidified atmosphere containing 5% CO2 at 37 °C. […]
Endpoint Label: IC50 (µM)
Numbers only, in µM.

Endpoint output: IC50 of `N#Cc1c(C(F)(F)F)cc(O)n2c1nc1ccccc12` . Value?
8.19

====

# Assayed System: mouse TMEM16A mutant K603Q (Mus musculus, UniProt Q8BHY3, K603Q)
# Construct: expressed in transfected cells; host or cells: HEK293T
# Sequence (Q8BHY3 1-960 K603Q): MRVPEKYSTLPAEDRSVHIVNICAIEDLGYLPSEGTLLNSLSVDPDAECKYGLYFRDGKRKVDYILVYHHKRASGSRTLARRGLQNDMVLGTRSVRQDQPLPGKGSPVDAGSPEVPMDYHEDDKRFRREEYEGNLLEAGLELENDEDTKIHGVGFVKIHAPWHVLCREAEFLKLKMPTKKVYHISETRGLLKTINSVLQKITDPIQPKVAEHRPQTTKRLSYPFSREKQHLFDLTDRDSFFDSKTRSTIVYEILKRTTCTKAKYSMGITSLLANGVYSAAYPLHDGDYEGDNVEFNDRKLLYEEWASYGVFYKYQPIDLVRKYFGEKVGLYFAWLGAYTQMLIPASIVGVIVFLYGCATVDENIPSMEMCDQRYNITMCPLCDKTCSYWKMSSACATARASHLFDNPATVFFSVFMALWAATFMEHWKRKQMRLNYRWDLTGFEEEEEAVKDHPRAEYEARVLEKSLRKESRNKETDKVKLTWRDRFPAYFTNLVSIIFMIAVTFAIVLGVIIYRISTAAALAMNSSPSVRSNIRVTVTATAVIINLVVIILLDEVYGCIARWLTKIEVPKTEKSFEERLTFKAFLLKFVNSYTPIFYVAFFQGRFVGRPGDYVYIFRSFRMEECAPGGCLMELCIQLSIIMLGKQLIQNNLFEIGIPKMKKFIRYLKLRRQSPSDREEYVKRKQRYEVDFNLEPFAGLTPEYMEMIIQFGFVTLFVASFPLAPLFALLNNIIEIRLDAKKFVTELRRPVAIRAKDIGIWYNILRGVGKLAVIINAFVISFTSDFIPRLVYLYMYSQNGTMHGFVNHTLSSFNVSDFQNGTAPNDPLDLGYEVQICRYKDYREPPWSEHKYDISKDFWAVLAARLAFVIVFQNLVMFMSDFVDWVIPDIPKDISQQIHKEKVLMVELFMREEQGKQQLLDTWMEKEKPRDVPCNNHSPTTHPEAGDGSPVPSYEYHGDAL
# Assay Overview: Inside-out patch recording of 1PBC block, mutant K603Q
# Assay type: cell-based
# Run Parameters: K603Q; V 40 mV
Endpoint Label: pIC50
Give bare numbers, as −log10 of the molar value.

Endpoint output: pIC50 of N#Cc1c(C(F)(F)F)cc(O)n2c1nc1ccccc12 [1PBC] . Value?
3.72
